- tested-system: T1, human IgG4 (human, UniProt P01861-1 1-327 = IgG part)
- T1 construct: Calbiochem; plasma IgG4 in anisotropy studies, myeloma-derived (cat. 400126) in batch/column studies; also called hIgG4
- T1 sequence (P01861 other isoform, or with tags, fused parts or gaps): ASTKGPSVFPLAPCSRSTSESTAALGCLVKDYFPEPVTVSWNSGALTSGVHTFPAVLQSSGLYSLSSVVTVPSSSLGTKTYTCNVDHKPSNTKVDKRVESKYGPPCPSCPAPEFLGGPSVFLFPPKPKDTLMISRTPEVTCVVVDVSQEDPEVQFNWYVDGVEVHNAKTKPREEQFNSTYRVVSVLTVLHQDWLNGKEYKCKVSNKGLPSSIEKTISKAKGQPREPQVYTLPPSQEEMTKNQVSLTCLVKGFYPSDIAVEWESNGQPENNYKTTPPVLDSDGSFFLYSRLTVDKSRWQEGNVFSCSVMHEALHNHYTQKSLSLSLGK
- protocol-details: fluorescence anisotropy; pH 7.4, 0.01 M Tris-HCl
Positions of bridges follow the written chain, without caps; N, C: chain ends.
# Kd values compiled below
The answer is to be given in nM; state only the numeric part.

Consider the worked cases shown below.
# binder, recorded-metric, readout-units, numeric-readout
rows = [
    ("Ac-AGYYWCNYWGLCPDQGTPGPEGGGK-NH2 (not fully specified (bridges); printed as Ac-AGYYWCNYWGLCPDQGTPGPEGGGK-NH2; cysteine pairing not given here; also: fluorescein-labelled form in anisotropy assays, place not given here, Fluorescein-labelled in anisotropy assays; immobilised in batch assays) [DX254]", "Kd", "nM", 2900),
    ("Ac-GDDDHCYWFREWFNSECPHGEPGPEGGGK-NH2 (not fully specified (bridges); printed as Ac-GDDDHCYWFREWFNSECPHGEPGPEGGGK-NH2; cysteine pairing not given here; also: fluorescein-labelled form in anisotropy assays, place not given here, Fluorescein-labelled in anisotropy assays; immobilised in batch/column assays) [DX252]", "Kd", "nM", 3200),
]

Prompt: Please report the recorded Kd for Ac-GDDHMCVYTTWGELIWCDNHEPGPEGGGK-NH2 (disulfide 6-17 (inferred), Synthetic disulfide-cyclised peptide) [DX249] .
Response: 1900
